Tested on: Staphylococcus aureus
Assay: Antibacterial activity against Staphylococcus aureus ATCC 29213 by CLSI method
Format: functional
PROPERTY_NAME: MIC

Return reported MIC for target or system Staphylococcus aureus, item `CC(C)(C)c1ccc(S/C=C\C(=O)NC2CC2)cc1` . > 128 µg/mL

Tell me MIC of `CC(C)N(C(=O)/C=C\Sc1ccc(C(C)(C)C)cc1)C(C)C` when tested on Staphylococcus aureus. > 128 µg/mL

Provide the reported MIC (system: Staphylococcus aureus) for `CCOC(=O)/C=C\C(=O)c1cc2ccccc2s1` 1 µg/mL

Under Staphylococcus aureus, report MIC for `CCOC(=O)c1ccccc1C(=O)c1ccc(C(C)(C)C)cc1` > 128 µg/mL

Enter measured MIC, system Staphylococcus aureus, for the compound shown: `CNC(=O)/C=C\Sc1ccc(C(C)(C)C)cc1` > 128 µg/mL

Lab note: Staphylococcus aureus assay, enter MIC for `CCOC(=O)CCCc1ccc(C(C)(C)C)cc1` here > 128 µg/mL

Using Staphylococcus aureus as the test system, report measured MIC of `CCOC(=O)/C=C\Sc1ccc(C(C)(C)C)cc1` . > 128 µg/mL

Consider the compound `CCOC(=O)CCSc1ccc(C(C)(C)C)cc1` tested on Staphylococcus aureus; state its MIC. > 128 µg/mL

Answer with MIC of `CCOC(=O)C#CC(=O)c1ccc(C(C)(C)C)cc1` measured for Staphylococcus aureus. > 128 µg/mL

Print Staphylococcus aureus MIC for `CC(C)=CCOC(=O)/C=C/C(=O)c1ccc(C(C)(C)C)cc1` . 0.5 µg/mL

Give measured MIC for `CCOC(=O)/C=C/Cc1ccc(C(C)(C)C)cc1` (Staphylococcus aureus). 16 µg/mL

Fill in MIC for `CCOC(=O)[C@@H]1C[C@H]1C(=O)c1ccc(C(C)(C)C)cc1` tested with Staphylococcus aureus. 64 µg/mL

###

A collection of molecules and their measured MIC
Tested on: Mycobacterium avium
Test: Antimycobacterial activity against Mycobacterium avium
Assay type: functional

Example entries begin here.
INSERT INTO results (molecule, target_desc, endpoint_result) VALUES
  ('CCOC(=O)c1ccccc1C(=O)c1ccc(C(C)(C)C)cc1', 'Mycobacterium avium', '> 128 mg/L'),
  ('CCOC(=O)CCCc1ccc(C(C)(C)C)cc1', 'Mycobacterium avium', '> 128 mg/L'),
  ('CCOC(=O)/C=C/Cc1ccc(C(C)(C)C)cc1', 'Mycobacterium avium', '> 128 mg/L'),
  ('CO[C@H]1/C=C/O[C@@]2(C)Oc3c(C)c(O)c4c(O)c(c(/C=N/N5CCN(C)CC5)c(O)c4c3C2=O)NC(=O)/C(C)=C\C=C\[C@H](C)[C@H](O)[C@@H](C)[C@@H](O)[C@@H](C)[C@H](OC(C)=O)[C@@H]1C [RIFAMPIN]', 'Mycobacterium avium', '2 mg/L'),
  ('CCOC(=O)/C=C\C(=O)c1cc2ccccc2s1', 'Mycobacterium avium', '16 mg/L');

Give MIC for `CCOC(=O)C#CC(=O)c1ccc(C(C)(C)C)cc1` > 128 mg/L

Identify measured MIC corresponding to `CCOC(=O)/C=C\C(=O)c1ccc(C(C)(C)C)cc1` 32 mg/L

Provide MIC value for the following molecule: `CC(C)=CCOC(=O)/C=C/C(=O)c1ccc(C(C)(C)C)cc1` > 128 mg/L

Identify measured MIC corresponding to `CCOC(=O)CCC(=O)c1ccc(C(C)(C)C)cc1` > 128 mg/L

Output measured MIC for this item: `CCOC(=O)CCSc1ccc(C(C)(C)C)cc1` > 128 mg/L

Check the records and state MIC for `CCOC(=O)/C=C/C(=O)c1ccc(C(C)(C)C)cc1` 16 mg/L
